Origin of measurements: ChEMBL document CHEMBL4813973

tested on: MDA-MB-231; assay: Antiproliferative activity against human MDA-MB-231 cells assessed as reduction in cell viability incubated for 72 hrs by MTT assay; format: functional, cell-based; conditions: MDA-MB-231, 72 h
metric: IC50 (nM)

Study these solved cases before continuing.
COc1ccc(CNC(=O)c2cc(F)ccc2N2CCCCC2)cc1O : 86
COc1ccc(CNC(=O)c2cc([N+](=O)[O-])ccc2N2CCCCC2)cc1O : 29

1 = COc1ccc(CNC(=O)c2ccccc2N2CCOCC2)cc1O
2 = COc1ccc(CNC(=O)c2ccccc2N2CCCCC2)cc1O
### Prompt Sort 1 and 2 by IC50 descending and give the first. Give the label of your selection.
### Response 1
(1: 55 nM, 2: 29 nM)

a = COc1ccc(CNC(=O)c2cc(C(F)(F)F)ccc2N2CCOCC2)cc1O
b = COc1ccc(N2CCOCC2)c(C(=O)NCc2ccc(OC)c(O)c2)c1
### Prompt Hi there, can you help? I need to know whether a or b has lower measured IC50. Answer format: the label of the selected item.
### Response b
(b: 29 nM, a: 57 nM)

P = CSc1ccc(COC(=O)c2cc([N+](=O)[O-])ccc2N2CCOCC2)cc1
Q = COc1ccc(CNC(=O)c2cc([N+](=O)[O-])ccc2N2CCOCC2)cc1O
### Prompt Which one would you say has the larger IC50 value: P , or Q ? To answer, give the label that identifies your chosen option.
### Response Q
(Q: 57 nM, P: 31 nM)

###

test: n-Octanol/water partition coefficient, logD of the compound incubated for 24 hrs at pH 7.4 by HPLC analysis; assay type: physicochemical
metric: logD at 24 h

COc1ccc(/C=C\c2cc(OC)c(OC)c(OC)c2)cc1O [COMBRETASTATIN A4] : 2.68

a = COc1ccc(CNC(=O)c2cc(F)ccc2N2CCCCC2)cc1O
b = COc1ccc(CNC(=O)c2cc(F)ccc2N2CCOCC2)cc1O
### Prompt Look at a and b . Which one has the lower recorded logD at 24 h number? Please indicate the selected item by its label.
### Response b
(b: 1.61, a: 2.97)

###

assay: Acute toxicity in ICR mouse assessed as animal survival at 512 mg/kg, iv measured for 14 days; type: organism-based; settings: in vivo, time 14 day
metric: survival at 336 h (%)
Give the value, in units of %, as a plain number.

Value of measured survival at 336 h for the entry COc1ccc(CNC(=O)c2cc(F)ccc2N2CCOCC2)cc1OP(=O)([O-])[O-].[Na+].[Na+] : 70

###

tested on: HCT-8; test: Antiproliferative activity against taxol-resistant human HCT-8 cells assessed as reduction in cell viability incubated for 72 hrs by MTT assay; type: functional, cell-based; conditions: Homo sapiens, HCT-8, 72 h; read-out: IC50
metric: IC50 (nM)

I = COc1ccc(CNC(=O)c2cc(F)ccc2N2CCOCC2)cc1O
II = CSc1ccc(COC(=O)c2cc([N+](=O)[O-])ccc2N2CCOCC2)cc1
### Prompt Pick the one with the larger IC50: I vs II Field: selected label. Fill in the label of the entry you choose.
### Response II

###

compounds and their reported solubility
assay: Aqueous solubility of the compound in phosphate buffer at pH 7.4 by HPLC-UV analysis; type: physicochemical
The answer is to be given in µg/mL; state only the numeric part.

COc1ccc(CNC(=O)c2cc(F)ccc2N2CCOCC2)cc1O : 76.6

Record COc1ccc(/C=C\c2cc(OC)c(OC)c(OC)c2)cc1O , field solubility: 1

###

system: L02; assay: Cytotoxicity against human L02 cells assessed as reduction in cell viability incubated for 72 hrs by MTT assay; format: cell-based; settings: L02, 72 h
IC50 by entry:
Please respond with the number in nM and leave the unit unwritten.

COc1ccc(CNC(=O)c2cc(F)ccc2N2CCCCC2)cc1O : 88

Reported L02 IC50 for item COc1ccc(CNC(=O)c2cc([N+](=O)[O-])ccc2N2CCCCC2)cc1O was 120

IC50 for L02 with input COc1ccc(CNC(=O)c2cc(Cl)ccc2N2CCOCC2)cc1O equals 95

Measured on L02, COc1ccc(CNC(=O)c2cc(F)ccc2N2CCOCC2)cc1O has a documented IC50 of 112

Per the reported L02 data, COc1ccc(CNC(=O)c2cc(Br)ccc2N2CCOCC2)cc1O has IC50 of 108

###

tested on: H22; experiment: Antitumor activity against […] xenografted in ICR mouse assessed as reduction of tumor weight at 20 mg/kg/day, iv for 21 days; format: functional; conditions: 504 h, time 21 day
In this section, each of the compounds is paired with its reported inhibition in vivo at 20 mg/kg/day.
Please reply with the bare figure in % and do not write the unit itself.

COc1ccc(/C=C\c2cc(OC)c(OC)c(OC)c2)cc1OP(=O)(O)O [FOSBRETABULIN] : 62.7
CSc1ccc(COC(=O)c2cc([N+](=O)[O-])ccc2N2CCOCC2)cc1 : 66.7
COc1ccc(CNC(=O)c2cc(F)ccc2N2CCOCC2)cc1OP(=O)([O-])[O-].[Na+].[Na+] : 71.4
COc1ccc(/C=C\c2cc(OC)c(OC)c(OC)c2)cc1O [COMBRETASTATIN A4] : 54.9

inhibition in vivo at 20 mg/kg/day on H22 for COc1ccc(CNC(=O)c2cc(F)ccc2N2CCOCC2)cc1O is 66

###

system: HepG2; test: cells; conditions: Homo sapiens, HepG2, 72 h
pIC50: −log10 of the molar value.
metric: pIC50

Consider the worked cases shown below.
COc1ccc(CNC(=O)c2ccccc2N2CCCCC2)cc1O : 7.51
COc1ccc(CNC(=O)c2cc(C(F)(F)F)ccc2N2CCOCC2)cc1O : 7.21
COc1ccc(CNC(=O)c2cc([N+](=O)[O-])ccc2N2CCCCC2)cc1O : 7.92
COc1ccc(CNC(=O)c2cc([N+](=O)[O-])ccc2N2CCSCC2)cc1O : 7.24
COc1ccc(/C=C\c2cc(OC)c(OC)c(OC)c2)cc1O : 8.00
COc1ccc(CNC(=O)c2cc(F)ccc2N2CCCCC2)cc1O : 7.59
COc1ccc(CNC(=O)c2cc(F)ccc2N2CCOCC2)cc1O : 7.60
CSc1ccc(COC(=O)c2cc([N+](=O)[O-])ccc2N2CCOCC2)cc1 : 7.48

a = COc1ccc(N2CCOCC2)c(C(=O)NCc2ccc(OC)c(O)c2)c1
b = COc1ccc(CNC(=O)c2ccccc2N2CCOCC2)cc1O
### Prompt Param pair: a , b . Output: the one whose pIC50 is numerically greater. Lab log: write the label of the selected item as the result.
### Response a
(a: 7.54, b: 7.32)

I = COc1ccc(CNC(=O)c2cc(Cl)ccc2N2CCOCC2)cc1O
II = COc1ccc(CNC(=O)c2cc([N+](=O)[O-])ccc2N2CCOCC2)cc1O
### Prompt Given I and II , report the one with the higher recorded pIC50. Your choice should be expressed through its label.
### Response I
(I: 7.54, II: 7.21)

###

test: Metabolic stability in rat plasma assessed as parent compound remaining at 100 nM measured after 3 hrs by HPLC analysis; assay type: ADME, cell-free; settings: read-out: Stabilty
metric: remaining at 3 h, 0.1 µM (%)

CSc1ccc(COC(=O)c2cc([N+](=O)[O-])ccc2N2CCOCC2)cc1 : 72.6
COc1ccc(CNC(=O)c2cc(F)ccc2N2CCOCC2)cc1O : 91.5

###

assay: Aqueous solubility of the compound in aqueous HCl at pH 2 by HPLC-UV analysis; type: physicochemical
metric: solubility (µg/mL)

P = COc1ccc(CNC(=O)c2cc(F)ccc2N2CCCCC2)cc1O
Q = COc1ccc(CNC(=O)c2cc(F)ccc2N2CCOCC2)cc1O
### Prompt Lab note: record which item had the higher solubility, P or Q . Please identify the chosen entry by its label.
### Response P
(P: 1110 µg/mL, Q: 323 µg/mL)

###

test: Acute toxicity in ICR mouse assessed as animal survival at 640 mg/kg, iv measured for 14 days; assay type: organism-based; settings: in vivo, time 14 day
metric: survival at 336 h (%)
// note: answer is a bare numeric in %

# survival at 336 h (compound: COc1ccc(CNC(=O)c2cc(F)ccc2N2CCOCC2)cc1OP(=O)([O-])[O-].[Na+].[Na+] ) is 50

###

tested on: MDA-MB-231; test: Antiproliferative activity against human MDA-MB-231 cells assessed as reduction in cell viability incubated for 72 hrs by MTT assay; format: functional, cell-based; conditions: MDA-MB-231, 72 h
pIC50: −log10 of the molar value.
metric: pIC50

Here is how some compounds turned out for pIC50.
COc1ccc(CNC(=O)c2cc(F)ccc2N2CCOCC2)cc1O : 7.57
COc1ccc(CNC(=O)c2cc(Cl)ccc2N2CCOCC2)cc1O : 7.52

A = COc1ccc(CNC(=O)c2cc(Br)ccc2N2CCOCC2)cc1O
B = COc1ccc(CNC(=O)c2cc([N+](=O)[O-])ccc2N2CCSCC2)cc1O
### Prompt Kindly compare A with B and tell me which has the lower pIC50 figure. To answer, give the label that identifies your chosen option.
### Response B
(B: 7.21, A: 7.54)
